assay: NCI Yeast Anticancer Drug Screen. Data for the mec2-1 strain (AID 157); details: S. cerevisiae mec2-1 strain, at 50.0 µM, stronger effect = higher value
Compounds without any hit were thinned out: in the full panel of roughly 79,000, 15% have a hit.
PROPERTY LABEL: growth inhibition (%)
The figure you give is taken to be in %; do not add the unit.

# count of solved cases: 8
> print(dat)
                                   compound  value.reported
1             Cc1cc2nc(Oc3ccccc3)nc(=O)n2o1             0.4
2            Nc1cccc2c(O)cc(S(=O)(=O)O)cc12           -19.2
3   O=C(O)c1c[nH]c2ccc([N+](=O)[O-])cc2c1=O           -12.8
4  c1ccc(C2=NN3CN(N2)c2ccccc2OCCCOc2ccccc23)cc1            2.05
5            C=Nc1ccc([N+](=O)[O-])c(N=C)c1           -0.25
6        Cc1ccccc1NC(=O)C(=O)Cc1nc2ccccc2s1            -8.7
7           Cc1cccc(/C=N\N=C\c2cccc(C)n2)n1           -10.2
8  Cc1ccc(NC(=O)OCC(F)(F)F)cc1NC(=O)OCC(F)(F)F            29.3

Given O=C(CN1CCCC1)Nc1ccc2sc3ccccc3c(=O)c2n1 , respond with its growth inhibition. -29.7

Given O=c1ccc2c(-c3ccccc3O)c3ccc(O)cc3oc-2c1 , respond with its growth inhibition. 78.4

Given CCOC1OCCCC1C(OCC)C(C)C (configuration not stated) , respond with its growth inhibition. 14.7

Given Cc1cccc2c1CCC21OC(=O)c2c1ccc1ccccc21 (configuration not stated) , respond with its growth inhibition. 2.7

---

experiment: NCI Yeast Anticancer Drug Screen. Data for the mec2-1 strain (AID 157); conditions: S. cerevisiae mec2-1 strain, at 50.0 µM, stronger effect = higher value
About 79,000 compounds went through this panel and 15% of them were active in at least one assay; those are over-represented in the sample as a whole.
The entries below come with measured growth inhibition values attached.
The figure you give is taken to be in %; do not add the unit.

# count of solved cases: 6
> print(dat)
                                   compound     property.label  units.text  value.reported
1     C/C(=N\NC(N)=O)c1ccc(Cl)c(-n2cccc2)c1  growth inhibition           %            3.65
2  CC1CCOCCCOC(=O)CCOCCC(=O)OCCCOCCCOC(=O)CCOCCC(=O)O1 (centres undefined)  growth inhibition           %             2.4
3                 Cn1cnc(N2CCCC2)c(C#N)c1=S  growth inhibition           %           -4.95
4  CCOC(=O)C(NC(=O)CC)(Nc1ccc(S(=O)(=O)Nc2ncccn2)cc1)C(F)(F)F (centres undefined)  growth inhibition           %           -14.9
5  CC(=O)OC(c1ccccc1)C1(c2ccccc2)OCCO1 (centres undefined)  growth inhibition           %             7.5
6  COC1(OC)C(c2ccc(Cl)cc2)C(C#N)(C#N)C1(OC)OC (centres undefined)  growth inhibition           %           -13.2

Please turn your attention to the following entry.
Given COC(=O)CC1=NNC(=O)C1 , respond with its growth inhibition. -15.1

---

test: NCI Yeast Anticancer Drug Screen. Data for the cln2 rad14 strain (AID 165);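 further: 0% = growth equal to vehicle treated cultures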; settings: S. cerevisiae cln2 rad14 strain, at 50.0 µM
Compounds without any hit were thinned out: in the full panel of roughly 79,000, 15% have a hit. Activity calls are given as the source filed them. Rule as the data show it: active = growth inhibition above about 70%; inactive = the rest.
Pick from active, inactive when you respond.

Record excerpt, results attached:
COMPOUND	QUALITATIVE LABEL
CC(O)C(N=Cc1ccccc1[O-])C(=O)[O-].CC(O)C(N=Cc1ccccc1[O-])C(=O)[O-].[Co+2] (stereo unspecified)	inactive
CC(=O)OC1CCCN(C)C1 (stereo unspecified)	inactive
CCOP(=O)(OCC)C(Cc1cn(S(=O)(=O)c2ccc(C)cc2)cn1)C(=O)O (stereo unspecified)	inactive
CC(C)NC(=O)C1C2CCC(CC2)C1C(=O)NC(C)C (stereo unspecified)	inactive

Answer briefly: the call reported for Cc1cc(NC(=O)CCc2ccc(N3C(N)=NC(N)=NC3(C)C)cc2)ccc1S(=O)(=O)O in this assay. inactive

Answer briefly: the call reported for [O-]c1c2c(nn1-c1ccc(Cl)cc1)c1ccccc1c[n+]2Cc1ccccc1 in this assay. inactive

Answer briefly: the call reported for O=C(O)Cc1ccc(-c2ccccc2)cc1 in this assay. inactive

Answer briefly: the call reported for Cc1ccc(S(=O)(=O)OC2C(C)OCOC3COCOC32)cc1 (stereo unspecified) in this assay. inactive

---

experiment: NCI Yeast Anticancer Drug Screen. Data for the mlh1 rad18 strain (AID 175); conditions: S. cerevisiae mlh1 rad18 strain growth inhibition; at 50.0 µM; stronger effect = higher value
About 79,000 compounds went through this panel and 15% of them were active in at least one assay; those are over-represented in the sample as a whole.
PROPERTY LABEL: growth inhibition (%)
The figure you give is taken to be in %; do not add the unit.

> print(dat)
                                   compound  value.reported
1  c1ccc2c(c1)C(=C1c3ccccc3-c3ccccc31)c1ccccc1-2            -2.1

Given ClC1CC2CCC1C2Br (centres undefined) (tested in a mixture with another compound) , respond with its growth inhibition. -17.1

Given CC(C)(C)C1CCC2c3c([nH]c4ccccc34)C3C(=O)N(c4ccc(C#N)cc4)C(=O)C3C2C1 (centres undefined) , respond with its growth inhibition. 38.8

Given CN(CC(=O)O)c1ncc2c(n1)-c1ccccc1SC2 , respond with its growth inhibition. -6.3

Given CC1CCc2c(ccc3ccccc23)C1 (centres undefined) , respond with its growth inhibition. -2.05

Given O=C(O)CCS(=O)(=O)CCC(=O)O , respond with its growth inhibition. 22.8

Given O=c1[nH]c2cc([N+](=O)[O-])ccc2nc1/C=C(\O)c1ccccc1 , respond with its growth inhibition. 3.3

Given CCc1cccc(C)c1NC(=O)C(=O)Cc1nc2ccccc2s1 , respond with its growth inhibition. -6.15

---

assay: NCI Yeast Anticancer Drug Screen. Data for the mec2-1 strain (AID 157); details: S. cerevisiae mec2-1 strain, at 50.0 µM
This is part of a sample that, as a whole, favours compounds with a hit. Of some 79,000 tested, about 15% had one in any assay. Active and inactive are the calls of the source. Cut-off read from the data, not from the text of the source: active = growth inhibition above about 70%; inactive = the rest.
Pick from active, inactive when you respond.

Record excerpt, results attached:
MOLECULE	QUALITATIVE LABEL
CS1(=O)=NC(=O)C(N2C(=O)c3ccccc3C2=O)CC1 (configuration not stated)	inactive
ClC[C@H]1C[C@@H]2C[C@@H]1[C@H]1O[C@@H]21	inactive
COC(=O)CCC(=O)C(CC(=O)OC)C(=O)CCC(=O)NCCc1ccccc1 (configuration not stated)	inactive
COc1ccc(C(=O)CC(C#N)c2ccc(OC)cc2)cc1 (configuration not stated)	inactive
Cn1c(=O)c2sc3cc4c(cc3c2c2ccccc21)sc1c(=O)n(C)c2ccccc2c14	inactive

Answer briefly: the call reported for O=S(=O)(/C=C/S(=O)(=O)c1ccccc1)c1ccccc1 in this assay. active

Answer briefly: the call reported for CCC(=O)OC1=CC(=O)c2ccccc2C1=O in this assay. inactive

Answer briefly: the call reported for CCCC(C)C(C)O (configuration not stated) in this assay. inactive

Answer briefly: the call reported for CCCN=C(NNC(N)=O)C(C)=O in this assay. inactive

Answer briefly: the call reported for Cn1cc(N=P(c2ccccc2)(c2ccccc2)c2ccccc2)c(=O)n(C)c1=O in this assay. inactive

Answer briefly: the call reported for C=CCN1COc2c(cc3c4c(cccc24)C(=O)O3)C1 in this assay. inactive

Answer briefly: the call reported for N#Cc1c(/C=C/c2ccccc2)c2c([nH]c1=S)CCCCC2 in this assay. inactive

---

The entries below come with measured growth inhibition values attached.
Experiment: NCI Yeast Anticancer Drug Screen. Data for the cln2 rad14 strain (AID 165);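 further: 0% = growth equal to vehicle treated cultures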
Settings: S. cerevisiae cln2 rad14 strain, at 50.0 µM, stronger effect = higher value
Protocol: Growth inhibition of yeast strains with defined genetic alterations is measured as a screen for potential anti-cancer activity. Selected strains with alterations in DNA damage repair or cell cycle control were exposed to compounds and growth inhibition was measured relative to vehicle treated controls. The strain used in this assay is cln2 rad14
About 79,000 compounds went through this panel and 15% of them were active in at least one assay; those are over-represented in the sample as a whole.
The figure you give is taken to be in %; do not add the unit.

# count of solved cases: 10
> print(dat)
                                    molecule     property.label  value.reported
 1  CC1CNC(=S)SSC(=S)N1 (configuration not stated)  growth inhibition            32.7
 2  COc1ccc(C(=O)CC(C#N)c2ccc(OC)cc2)cc1 (configuration not stated)  growth inhibition           -21.2
 3                  NC(=O)n1ncc(Cl)c(Cl)c1=O  growth inhibition             4.3
 4  CCOC(=O)c1ccc(NC(=O)Nc2cc(C(F)(F)F)ccc2Cl)cc1  growth inhibition            92.2
 5  ClC[C@H]1C[C@@H]2C[C@@H]1[C@H]1O[C@@H]21  growth inhibition           -5.35
 6  CCCOCC(O)CNCCNCC(O)COCCC (configuration not stated)  growth inhibition           -34.5
 7          Cc1cc(-c2ccccc2)c(C#N)c(=O)[nH]1  growth inhibition           -14.8
 8  N#C/C(=N\N=C(/C#N)c1ccc(Cl)cc1)c1ccc(Cl)cc1  growth inhibition            -6.4
 9  CCOC(=O)c1sc(SSc2nc(C)c(C(=O)OCC)s2)nc1C  growth inhibition            12.9
10  CC(C)CCCC(C)C1CCC2C3CC=C4CCCCC4(C)C3CCC12C (configuration not stated)  growth inhibition           -5.45

Given C1=CC2CCC1C1CSCC21 (configuration not stated) , respond with its growth inhibition. -33.8

Given N#C/C(=C\c1ccc(Cl)cc1)C(=O)N/N=C/c1ccc(Cl)cc1 , respond with its growth inhibition. 1.35
